Property: apparent KD of MS2 coat protein; scope: individual sequences
- Tested on: MS2 coat protein
- test.protocol: apparent KD of MS2 coat protein; designed switch direction (-1 OFF switch, 1 ON switch): -1; higher = weaker reporter binding
- run.parameters: input ligand: none
experimental.endpoint: apparent KD of MS2 coat protein (µM)

>>> measured("CCUCCGGCAGGAUAUGCAGGGAGGAUGUUGUGUUAUUGGUAACAUGAGGAUCACCCAUGUAGAAGGGCCAAUAC [Eternabot (L2) Solution 42] (Eterna round: R97, puzzle: Exclusion 2)")
0.015
>>> measured("CAGUACUGAGGAUAUACAUGAGGAUCACCCAUGUGUAGAUGAAAAUUAAUUUUAUUAUGUAGAAGGCGGUGCUG [JR_Ex3_Sub045] (Eterna round: R97, puzzle: Exclusion 3)")
0.0233
>>> measured("AUAGGUUCGUAGGAUAUUCCUGCAGGCGCGCUGGAAGAAGGAUGAACAUGAGGAUCACCCAUGUGAACACUCCG [Eternabot (L2) Solution 88] (Eterna round: R97, puzzle: Exclusion 6)")
0.0196

---

- Tested on: MS2 coat protein
- test.protocol: apparent KD of MS2 coat protein; designed switch direction (-1 OFF switch, 1 ON switch): -1; higher = weaker reporter binding
- run.parameters: input ligand: none
experimental.endpoint: apparent KD of MS2 coat protein (µM)

>>> measured("ACAGUACUGCAAGGAUAUCGUUCUAGUUUAUUACGAGAAGGUGCUUUAGUUAUUUCUUUGUGUUGACAUGAGGAUCACCCAUGU [JR_ExcNG1_Sub055] (Eterna round: R96, puzzle: Exclusion NG 1)")
0.0264
>>> measured("UUAAUUACGGUGCUUUAACCUCACAUGAGGAUCACCCAUGUGCAGGAUAUCAGCUCGUGUAGAGCUGAGAAGGGCACUGCACCG [ExNG3/11-A3] (Eterna round: R96, puzzle: Exclusion NG 3)")
0.0121
>>> measured("GGAUAAAAGUCAGGAUAUACGUAUCGCUAGCGAGUAGAAGGGACACAUGAGGAUCACCCAUGUGAGUUCUCAAUAAGAAACACG [Prohibition 61 - Jieux - Exclusion NG 1] (Eterna round: R96, puzzle: Exclusion NG 1)")
0.0195
>>> measured("GGUGGUAUGUCAGGAUAUACAGCCUAAAUGGAAGUAGAAGGGACACAUGAGGGUCACCCAUGUGACAUGAGGAUCACCCAUGUA [Hi3 10-05-2015] (Eterna round: R96, puzzle: Exclusion NG 1)")
0.0607

---

- Tested on: K4 kissing-loop RNA reporter;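 also: bound reporter read as fluorescence of individual clusters on recovered sequencing chips by microscopy, with normalized cluster intensities fitted with a binding model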
- test.protocol: apparent KD of K4 kissing-loop reporter; higher = weaker reporter binding
- run.parameters: Eterna round: R107; input ligand: theophylline 20 uM
apparent KD of K4 kissing-loop reporter of 500 nM or higher: Satisfied. Under 500 nM: Not satisfied.

>>> class("CCAAUCUGUUACGAUACCAGUCAAAGAUAUUUUAUCAAUGCCCUCACCGAGUGAUGUUCGGACCCUUGGCAGCGUCUGGGAUAGG [ddfcmullin]")
"Not satisfied"
>>> class("AUUCCCACUUAAGGAUAUCAAGGAGUGAUGUUCCAAAUGGUCCACGUCGCGGCUCUCCGGGCACAAUGAGAAGGUAAAGCUGGGU [theeternabot_exclusion_KL_FMN_B_43]")
"Not satisfied"
>>> class("AUAGGAUUGCGAGGAUAUCCUUCCCACGUCGAAGUACCGUGCUUGAUGGAGUGAUGUUCGAUCAGAGGAGAAGGUGCGGUUUUGU [Same State FMN B GF24]")
"Satisfied"
>>> class("AGGUUUUGAUUAGGAUAUGCACUGACGAUGAGAAUAUAGUGAUGUUAUAUACUACGAAUUAGUAGAGUAGAAGGGAUUGAGGUUU [SSFMNB.Z]")
"Not satisfied"
>>> class("UCGAUCGCUAGUGAUGUUGGUGUGCUACAUCGAGGACCGGUACGGCCGCCACUCGAGCCCGAGUAGAAGGGUGGGCUGCUAUGAA [theeternabot_sameState_KL_Trp_A_18]")
"Satisfied"
>>> class("AAAAUAAACCAGUGAUGUUGGUGUCUAGAUACCAGCGACAAAAGUCGCCCUUGGCAGCUACGGACGUACAAAAUAAGUACGUCCU [MatMod 9 - Jieux - Same State - Theophylline A]")
"Not satisfied"
